Measured Target: PARG in HeLa cell line (Homo sapiens (Human))
Procedure Summary: PARG cell assay (nuclear PAR chains after MMS, immunofluorescence)
Type: cell-based
Stated Conditions: HeLa cells, MMS 50 μg/mL; read-out: PARG Cell IC50 Geomean
Measurement Label: pIC50
Scale note: pIC50 = -log10(concentration in M).

Data point: CCn1c(=O)n(-c2nnc(C)s2)c2cc(S(=O)(=O)NC3(C#N)CC3)ccc21 ; pIC50 = 6.31

Per the records, this molecule ( C#CCn1c(=O)n(-c2nnc(C(F)F)s2)c2cc(S(=O)(=O)NC3(CF)CC3)c(F)cc21 ) has pIC50 equal to 7.80

The recorded pIC50 for entry Cc1nnc(-n2c(=O)n(Cc3sc(C)nc3C)c3ccc(S(=O)(=O)NC4(C)CC4)cc32)s1 equals 6.96

The molecule identified as Cc1nnc(-n2c(=O)n(CC3CCCN3C)c3ccc(S(=O)(=O)NC4(C)CC4)cc32)s1 (stereo not shown) registered its pIC50 at 6.78

====

Kindly supply the reported pIC50 values for the records listed here.
Measured Target: PARG in HeLa cell line (Homo sapiens (Human), UniProt Q86W56)
Procedure Summary: PARG cell assay (nuclear PAR chains after MMS, immunofluorescence)
Type: cell-based
Stated Conditions: HeLa cells, MMS 50 μg/mL; read-out: PARG Cell IC50 Geomean
FYI, pIC50 means -log10 of a concentration in mol per litre.

The recorded pIC50 for entry Cc1cnc(-n2c(=O)n(Cc3sc(C)nc3C)c3ccc(S(=O)(=O)NC4(C)CC4)cc32)s1 equals 6.80

// Cc1nnc(-n2c(=O)n(Cc3ccc(F)cc3)c3ccc(S(=O)(=O)NC4(C)CC4)cc32)s1 : pIC50 value = 6.97

pIC50 measured on Cc1nnc(-n2cc(C(=O)C3CC3)c3ccc(S(=O)(=O)NC4(C)CC4)cc32)s1 = 6.87

====

Measured Target: Human Full Length PARG (Homo sapiens (Human))
Sequence (Q86W56 whole entry): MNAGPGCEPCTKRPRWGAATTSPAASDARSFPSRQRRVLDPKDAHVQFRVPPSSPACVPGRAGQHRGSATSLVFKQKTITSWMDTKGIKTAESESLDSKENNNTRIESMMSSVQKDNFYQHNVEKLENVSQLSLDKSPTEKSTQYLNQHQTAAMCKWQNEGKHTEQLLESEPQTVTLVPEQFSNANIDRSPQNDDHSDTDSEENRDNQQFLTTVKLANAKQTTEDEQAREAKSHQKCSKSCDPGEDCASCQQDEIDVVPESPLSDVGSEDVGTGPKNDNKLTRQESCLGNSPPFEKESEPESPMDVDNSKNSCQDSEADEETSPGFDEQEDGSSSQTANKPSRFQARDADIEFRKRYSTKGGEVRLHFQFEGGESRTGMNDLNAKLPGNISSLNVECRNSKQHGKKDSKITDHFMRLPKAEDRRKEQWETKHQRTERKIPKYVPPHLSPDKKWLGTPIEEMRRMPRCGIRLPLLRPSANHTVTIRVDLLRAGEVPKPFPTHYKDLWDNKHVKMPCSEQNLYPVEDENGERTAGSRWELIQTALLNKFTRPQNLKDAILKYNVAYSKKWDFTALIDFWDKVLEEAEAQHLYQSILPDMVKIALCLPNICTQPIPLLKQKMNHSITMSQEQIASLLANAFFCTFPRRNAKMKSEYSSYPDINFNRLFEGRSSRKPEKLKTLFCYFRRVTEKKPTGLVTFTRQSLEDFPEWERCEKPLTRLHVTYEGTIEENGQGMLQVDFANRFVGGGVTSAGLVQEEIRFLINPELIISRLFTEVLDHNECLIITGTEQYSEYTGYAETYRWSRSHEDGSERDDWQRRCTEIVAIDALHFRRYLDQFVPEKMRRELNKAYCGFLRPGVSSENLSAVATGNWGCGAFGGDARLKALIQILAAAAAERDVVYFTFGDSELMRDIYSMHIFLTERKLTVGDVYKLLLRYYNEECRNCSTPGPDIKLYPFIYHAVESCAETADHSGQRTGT
Procedure Summary: PARG in vitro enzyme assay (TR-FRET)
Stated Conditions: read-out: PARG_EC50_ENZYME
Label fulfilled when EC50 < 700 nM; otherwise not fulfilled.

QUERY: Does the reported EC50 of the following molecule sit strictly below 700 nM? Cc1nnc(-n2c(=O)n(CCF)c3ccc(S(=O)(=O)NC4(C)CC4)cc32)o1
RESULT: not fulfilled

QUERY: Does COCCn1c(=O)n(-c2nnc(C)s2)c2cc(S(=O)(=O)NC3(CF)CC3)ccc21 have EC50 strictly under 700 nM?
RESULT: fulfilled

QUERY: Is the reported EC50 for Cc1nsc(-n2c(=O)n(C)c3cc(F)c(S(=O)(=O)NC4(C)CC4)cc32)n1 strictly below 700 nM?
RESULT: not fulfilled

QUERY: Lab note: EC50 threshold 700 nM. Does this molecule come in strictly under it? Cn1c(=O)n(Cc2cc(F)cc(F)c2)c2ccc(S(=O)(=O)NC3(C)CC3)cc21
RESULT: not fulfilled

QUERY: Confirm or reject: EC50 of Cc1nnc(-n2cc(Cc3ccccc3)c3ccc(S(=O)(=O)NC4(C)CC4)cc32)s1 lies strictly below 700 nM
RESULT: not fulfilled

QUERY: For Cc1nnc(-n2c(=O)n(Cc3sc(C)nc3C)c3ccc(S(=O)(=O)NC4(C)CC4)cc32)o1 , is the recorded EC50 below the cut-off of 700 nM?
RESULT: fulfilled

QUERY: Strictly below 700 nM: is that where EC50 of Cc1nc(C)c(Cn2c(=O)[nH]c3cc(S(=O)(=O)NC4(C)CC4)ccc32)s1 sits?
RESULT: not fulfilled

QUERY: Dear colleague, could you confirm whether EC50 of Cc1nnc(-n2c(=O)n(CC3CC3)c3ccc(S(=O)(=O)NC4(C)CC4)cc32)s1 falls below 700 nM? Thanks.
RESULT: fulfilled

QUERY: Determine whether this molecule shows EC50 lower than 700 nM (ties excluded): Cn1c(=O)n(Cc2ccc(Cl)cc2)c2ccc(S(=O)(=O)NC3(C)CC3)cc21
RESULT: not fulfilled

QUERY: Report whether reported EC50 is lower than 700 nM (strictly) for Cn1c(=O)n(C)c2cc(S(=O)(=O)NC3(C)CC3)c(F)cc21
RESULT: not fulfilled

QUERY: Say whether its EC50 is strictly beneath 700 nM. Entry: Cn1c(=O)n(Cc2ccc(C#N)cc2)c2ccc(S(=O)(=O)NC3(C)CC3)cc21
RESULT: not fulfilled

QUERY: For Cn1c(=O)n(CC2CCCC2)c2ccc(S(=O)(=O)NC3(C)CC3)cc21 , is the recorded EC50 below the cut-off of 700 nM?
RESULT: not fulfilled

QUERY: State whether 700 nM exceeds EC50 recorded for Cc1nc(C)c(Cn2c(=O)n(-c3cscn3)c3cc(S(=O)(=O)NC4(C)CC4)ccc32)s1 .
RESULT: not fulfilled

QUERY: For Cc1ccc(Cn2c(=O)n(-c3nnc(C)s3)c3cc(S(=O)(=O)NC4(C)CC4)ccc32)o1 , is the recorded EC50 below the cut-off of 700 nM?
RESULT: fulfilled

QUERY: # check: EC50 < 700 nM for Cc1cnc(-n2c(=O)n(Cc3sc(C)nc3C)c3ccc(S(=O)(=O)NC4(C)CC4)cc32)s1
RESULT: fulfilled

QUERY: Hi there! Is EC50 for Cn1c(=O)n(-c2ccc(/C=C/C(=O)O)o2)c2cc(S(=O)(=O)NC3(C)CC3)ccc21 below 700 nM, do you know?
RESULT: not fulfilled

QUERY: Given the entry Cc1ccc(Cn2c(=O)n(-c3nnc(C)s3)c3cc(S(=O)(=O)NC4(C)CC4)ccc32)s1 , would its reported EC50 be below 700 nM?
RESULT: fulfilled

QUERY: Input Cn1c(=O)n(Cc2c(F)cccc2F)c2ccc(S(=O)(=O)NC3(C)CC3)cc21 ; condition: EC50 strictly below 700 nM. Does it hold?
RESULT: not fulfilled

QUERY: A record lists COCCn1c(=O)n(-c2nnc(C(F)F)s2)c2cc(S(=O)(=O)NC3(CF)CC3)c(F)cc21 . Is its EC50 below 700 nM?
RESULT: fulfilled

QUERY: Say whether its EC50 is strictly beneath 700 nM. Entry: COCCn1c(=O)n(-c2nnc(C)s2)c2cc(S(=O)(=O)NC3(C)CC3)ccc21
RESULT: fulfilled

Where do the numbers come from? From patent US10508086B2.
